Recorded Dmax by entry
measurement.target: UniProt Q9NWZ3
assay.details: Hibit fluorescence detection of proteolysis (IRAK4-HiBiT in HEK293T cells)
Assay type: cell-based
Set-up: host or cells: HEK293T (ATCC)
condition.description: HEK-293T
attribute.measured: Dmax

{"compound": "Cn1c(=O)n(C2CCC(=O)NC2=O)c2cccc(N3CCN(C4CN(C[C@H]5CC[C@H](n6cc(-n7cc(-c8cnn9ccc(N%10CCOCC%10)nc89)nn7)c(C(F)F)n6)CC5)C4)CC3)c21 (stereo partly shown) [Example 44]", "attribute.measured": "Dmax", "data.value": "> 80%"}
{"compound": "Cn1c(=O)n(C2CCC(=O)NC2=O)c2cccc(N3CCC4(CC3)CN(C[C@H]3CC[C@H](n5cc(-n6cc(-c7cnn8ccc(N9CCOCC9)nc78)nn6)c(C(F)F)n5)CC3)C4)c21 (stereo partly shown) [Example 47]", "attribute.measured": "Dmax", "data.value": "70 to 80%"}
{"compound": "Cn1c(=O)n(C2CCC(=O)NC2=O)c2cccc(N3CCN(C4CCN(C[C@H]5CC[C@H](n6cc(-n7cc(-c8cnn9ccc(N%10CCC[C@H](O)C%10)nc89)nn7)c(C(F)F)n6)CC5)CC4)CC3)c21 (stereo partly shown) [Example 144]", "attribute.measured": "Dmax", "data.value": "> 80%"}
{"compound": "Cn1c(=O)n(C2CCC(=O)NC2=O)c2cccc(C3CCN(C[C@H]4CC[C@H](n5cc(-n6cc(-c7ccc8cc(C(N)=O)cnn78)nn6)c(C(F)F)n5)CC4)CC3)c21 (stereo partly shown) [Example 84]", "attribute.measured": "Dmax", "data.value": "> 80%"}
{"compound": "Cn1c(=O)n(C2CCC(=O)NC2=O)c2cccc(N3CCN(C[C@H]4CC[C@H](n5cc(-n6cc(-c7cnn8ccc(N9CCC[C@H](O)C9)nc78)nn6)c(C(F)F)n5)CC4)CC3)c21 (stereo partly shown) [Example 141]", "attribute.measured": "Dmax", "data.value": "> 80%"}
{"compound": "CN1CCN(c2ccn3ncc(-c4cn(-c5cn([C@H]6CC[C@H](CN7CCC(N8CCN(c9cccc%10c9n(C)c(=O)n%10C9CCC(=O)NC9=O)CC8)CC7)CC6)nc5C(F)F)nn4)c3n2)CC1 (stereo partly shown) [Compound 229]", "attribute.measured": "Dmax", "data.value": "60 to 70%"}
{"compound": "Cn1c(=O)n(C2CCC(=O)NC2=O)c2cccc(N3CCC(N4CCN(C[C@H]5CC[C@H](n6cc(-n7cc(-n8ccc9cc(C(N)=O)cnc98)nn7)c(C(F)F)n6)CC5)CC4)CC3)c21 (stereo partly shown) [Example 98]", "attribute.measured": "Dmax", "data.value": "> 80%"}
{"compound": "Cn1c(=O)n(C2CCC(=O)NC2=O)c2cccc(CC3CCN(CC4CCN(C[C@H]5CC[C@H](n6cc(-n7cc(-c8cnn9ccc(N%10CCOCC%10)nc89)nn7)c(C(F)F)n6)CC5)CC4)CC3)c21 (stereo partly shown) [Example 8]", "attribute.measured": "Dmax", "data.value": "< 60%"}
{"compound": "Cn1c(=O)n(C2CCC(=O)NC2=O)c2cccc(N3CCC4(CCN(C[C@H]5CC[C@H](n6cc(-n7cc(-c8cnn9ccc(NCC%10CC%10)nc89)nn7)c(C(F)F)n6)CC5)CC4)C3)c21 (stereo partly shown) [Example 109]", "attribute.measured": "Dmax", "data.value": "> 80%"}
{"compound": "Cn1c(=O)n(C2CCC(=O)NC2=O)c2cccc(N3CCC4(CCN(C[C@H]5CC[C@H](n6cc(-n7cc(-c8cnn9ccc(N[C@@H]%10CCCC[C@@H]%10O)nc89)nn7)c(C(F)F)n6)CC5)C4)CC3)c21 (stereo partly shown) [Example 154]", "attribute.measured": "Dmax", "data.value": "> 80%"}

====

measurement.target: IRAK4 (Homo sapiens)
Sequence (Q9NWZ3 1-460): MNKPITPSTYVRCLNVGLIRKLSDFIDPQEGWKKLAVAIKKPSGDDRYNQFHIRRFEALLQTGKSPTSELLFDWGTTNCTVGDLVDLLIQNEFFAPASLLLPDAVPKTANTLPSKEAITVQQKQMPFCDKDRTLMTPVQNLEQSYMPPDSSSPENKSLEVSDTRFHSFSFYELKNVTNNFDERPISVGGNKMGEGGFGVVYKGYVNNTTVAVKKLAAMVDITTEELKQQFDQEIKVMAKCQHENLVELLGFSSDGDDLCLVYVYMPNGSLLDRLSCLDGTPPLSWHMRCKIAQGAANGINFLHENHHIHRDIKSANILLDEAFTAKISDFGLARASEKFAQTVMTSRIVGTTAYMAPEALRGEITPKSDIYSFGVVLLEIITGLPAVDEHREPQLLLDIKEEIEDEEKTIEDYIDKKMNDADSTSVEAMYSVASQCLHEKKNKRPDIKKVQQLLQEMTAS
assay.details: Hibit fluorescence detection of proteolysis (IRAK4-HiBiT in HEK293T cells)
Format: cell-based
Set-up: host or cells: HEK293T (ATCC)
condition.description: HEK-293T

{"compound": "O=C1CCC(NC(=O)c2ccc(N3CCN(C[C@H]4CC[C@H](n5cc(-n6cc(-c7cnn8ccc(N9CCOCC9)nc78)nn6)c(C(F)F)n5)CC4)CC3)cc2F)C(=O)N1 (stereo partly shown) [Example 28]", "Dmax": "60 to 70%"}
{"compound": "Cn1c(=O)n(C2CCC(=O)NC2=O)c2cccc(N3CCN(C4CCN(C[C@H]5CC[C@H](n6cc(-n7cc(-c8cnn9ccc(N%10CCC(O)CC%10)nc89)nn7)c(C(F)F)n6)CC5)CC4)CC3)c21 (stereo partly shown) [Example 138]", "Dmax": "> 80%"}
{"compound": "Cn1c(=O)n(C2CCC(=O)NC2=O)c2cccc(N3CC(CN4CCC(n5cc(-n6cc(-c7ccc8cc(C(N)=O)cnn78)nn6)c(C(F)F)n5)CC4)C3)c21 (stereo not shown) [Example 73]", "Dmax": "< 60%"}
{"compound": "Cn1c(=O)n(C2CCC(=O)NC2=O)c2cccc(N3CCC4(CCN(C[C@H]5CC[C@H](n6cc(-n7cc(-c8cnn9ccc(N%10CC%11(COC%11)C%10)nc89)nn7)c(C(F)F)n6)CC5)CC4)CC3)c21 (stereo partly shown) [Compound 223]", "Dmax": "> 80%"}
{"compound": "Cn1c(=O)n(C2CCC(=O)NC2=O)c2cccc(NC(=O)CN3CCN(C[C@H]4CC[C@H](n5cc(-n6cc(-n7ccc8cc(C(N)=O)cnc87)nn6)c(C(F)F)n5)CC4)CC3)c21 (stereo partly shown) [Example 107]", "Dmax": "> 80%"}
{"compound": "Cn1c(=O)n(C2CCC(=O)NC2=O)c2cccc(N3CCC4(CCN(C[C@H]5CC[C@H](n6cc(-n7cc(-c8cnn9ccc(N%10CCC[C@@H](O)C%10)nc89)nn7)c(C(F)F)n6)CC5)C4)CC3)c21 (stereo partly shown) [Example 248]", "Dmax": "> 80%"}
{"compound": "Cn1c(=O)n(C2CCC(=O)NC2=O)c2cccc(CN3CCC4(CC3)CN(C[C@H]3CC[C@H](n5cc(-n6cc(-c7cnn8ccc(N9CCOCC9)nc78)nn6)c(C(F)F)n5)CC3)CCO4)c21 (stereo partly shown) [Example 5]", "Dmax": "< 60%"}
{"compound": "Cn1c(=O)n(C2CCC(=O)NC2=O)c2cccc(C3CN(C4CCN(C[C@H]5CC[C@H](n6cc(-n7cc(-c8ccc9cc(C(N)=O)cnn89)nn7)c(C(F)F)n6)CC5)CC4)C3)c21 (stereo partly shown) [Example 82]", "Dmax": "> 80%"}
{"compound": "Cn1c(=O)n(C2CCC(=O)NC2=O)c2cccc(N3CCC4(CCN(C[C@H]5CC[C@H](n6cc(-n7cc(-c8cnn9ccc(N%10CCC(C)(O)CC%10)nc89)nn7)c(C(F)F)n6)CC5)C4)CC3)c21 (stereo partly shown) [Compound 238]", "Dmax": "> 80%"}
{"compound": "Cn1c(=O)n(C2CCC(=O)NC2=O)c2cccc(CN3CC4(C3)CN(C[C@H]3CC[C@H](n5cc(-n6cc(-c7cnn8ccc(N9CCOCC9)nc78)nn6)c(C(F)F)n5)CC3)C4)c21 (stereo partly shown) [Example 12]", "Dmax": "70 to 80%"}

====

Recorded DC50 by entry
measurement.target: IRAK4 (Homo sapiens)
assay.details: WB detection of proteolysis (Western Blot, THP-1 cells)
Assay type: cell-based
condition.description: Western Blot, THP-1 cells, 24 h; read-out: DC50

{"compound": "Cn1c(=O)n(C2CCC(=O)NC2=O)c2cccc(N3CCC4(CCN(C[C@H]5CC[C@H](n6cc(-n7cc(-c8cnn9ccc(N%10CCC[C@H](O)C%10)nc89)nn7)c(C(F)F)n6)CC5)C4)CC3)c21 (some centres unmarked)", "DC50": "< 0.01 µM"}
{"compound": "Cn1c(=O)n(C2CCC(=O)NC2=O)c2cccc(N3CCC(N4CCN(C[C@H]5CC[C@H](n6cc(-n7cc(-c8cnn9ccc(NCCC(C)(C)O)nc89)nn7)c(C(F)F)n6)CC5)CC4)CC3)c21 (some centres unmarked)", "DC50": "< 0.01 µM"}
{"compound": "Cn1c(=O)n(C2CCC(=O)NC2=O)c2cccc(N3CCC4(CCN(C[C@H]5CC[C@H](n6cc(-n7cc(-c8cnn9ccc(N%10CCOC[C@@H]%10CO)nc89)nn7)c(C(F)F)n6)CC5)CC4)CC3)c21 (some centres unmarked)", "DC50": "< 0.01 µM"}
{"compound": "Cn1c(=O)n(C2CCC(=O)NC2=O)c2cccc(N3CCC(CN4CCC5(CCC(n6cc(-n7cc(-n8ccc9cc(C(N)=O)cnc98)nn7)c(C(F)F)n6)CC5)CC4)CC3)c21 (centres unmarked)", "DC50": "> 0.03 µM"}
{"compound": "C[C@H]1CC2(CCN(c3cccc4c3n(C)c(=O)n4C3CCC(=O)NC3=O)CC2)CN1C[C@H]1CC[C@H](n2cc(-n3cc(-c4cnn5ccc(N6CCC[C@H](O)C6)nc45)nn3)c(C(F)F)n2)CC1 (some centres unmarked)", "DC50": "> 0.03 µM"}
